- target: hDDAH-1 (Homo sapiens (Human), UniProt O94760)
- Sequence (O94760 whole entry): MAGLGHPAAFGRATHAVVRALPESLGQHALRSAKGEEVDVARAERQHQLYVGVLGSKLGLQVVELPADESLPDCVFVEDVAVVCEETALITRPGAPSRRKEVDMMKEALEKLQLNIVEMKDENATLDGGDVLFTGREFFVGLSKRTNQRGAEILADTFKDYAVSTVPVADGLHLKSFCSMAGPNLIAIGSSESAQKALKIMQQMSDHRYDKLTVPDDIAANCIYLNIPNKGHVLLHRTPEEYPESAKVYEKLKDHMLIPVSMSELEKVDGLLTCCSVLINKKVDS
- test.method.notes: Determination of the Ki value (plate-reader assay)
- test.context: five NMMA concentrations (50-1250 μM), recombinant hDDAH-1; determined at least twice
reported.metric: Ki (µM)
Record the value in µM, omitting the unit from your answer.

## Input Value lookup for Ki; key = COCC/N=C(/N)NCCCCN
## Output 18
